- system: TAFIa (Homo sapiens)
- Sequence (Q96IY4 115-423): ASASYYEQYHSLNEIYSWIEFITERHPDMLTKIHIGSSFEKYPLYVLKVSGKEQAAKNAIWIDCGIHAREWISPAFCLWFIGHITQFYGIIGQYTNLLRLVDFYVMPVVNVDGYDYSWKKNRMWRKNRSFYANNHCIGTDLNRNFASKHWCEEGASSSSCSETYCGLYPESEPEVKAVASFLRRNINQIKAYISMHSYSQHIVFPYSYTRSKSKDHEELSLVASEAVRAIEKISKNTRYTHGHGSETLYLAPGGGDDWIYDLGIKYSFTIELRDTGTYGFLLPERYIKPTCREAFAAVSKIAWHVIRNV
- measurement.notes: Inhibition of TAFIa (hippuryl-Arg test)
- Format: biochemical
- cond: compound at 20 nM; TAFIa 2 nM, hippuryl-arginine 5 mM, 45 minutes; relative to control containing the carrier
outcome.measure: inhibition at 0.02 µM (%)

NCCCC[C@@]1(C(=O)O)CN(Cc2ccccc2-c2ccncc2)CCP1(=O)O = 90
COc1ccc(-c2ccccc2CN2CCP(=O)(O)C(CCCCN)(C(=O)O)C2)cn1 (stereo not drawn) = 91
NCCCC[C@@]1(C(=O)O)CN(Cc2ccc(F)cc2-c2ccc(O)nc2)CCP1(=O)O = 91
NCCCC[C@@]1(C(=O)O)CN(Cc2ccccc2-c2ccc(O)nc2)CCP1(=O)O = 80
NCCCC[C@@]1(C(=O)O)CN(Cc2ccccc2-c2cccc(Cl)c2)CCP1(=O)O = 80
NCCCC[C@@]1(C(=O)O)CN(Cc2ccc(F)cc2-c2ccc(F)cc2)CCP1(=O)O = 78
